Data provenance: patent US20200317779A1

Reported koff values are given for each entry in this list.
molecular target: recombinant cynomolgus monkey CD3ε/δ heterodimer (cynomolgus monkey) (UniProt Q95LI5); assay: BLI (Octet), antigen on anti-Penta His sensor, antibody 50 nM
Sequence (Q95LI5 22-117, stated change not applied, chain 1 of 2): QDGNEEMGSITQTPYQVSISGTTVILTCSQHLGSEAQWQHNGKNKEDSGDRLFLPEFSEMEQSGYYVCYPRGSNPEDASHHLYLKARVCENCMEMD
Sequence (Q95LI8 22-105, stated change not applied, chain 2 of 2, further chain): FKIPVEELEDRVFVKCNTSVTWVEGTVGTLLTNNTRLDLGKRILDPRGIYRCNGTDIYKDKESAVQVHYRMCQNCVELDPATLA
Give the quantity in s⁻¹, number only.

Known koff results, listed for orientation:
H16 (antibody, human IgG1, lambda, L234A L235A, V domains shown) VH: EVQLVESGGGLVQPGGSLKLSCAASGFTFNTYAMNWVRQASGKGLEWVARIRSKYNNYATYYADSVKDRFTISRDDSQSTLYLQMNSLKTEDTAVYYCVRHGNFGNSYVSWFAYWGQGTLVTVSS VL: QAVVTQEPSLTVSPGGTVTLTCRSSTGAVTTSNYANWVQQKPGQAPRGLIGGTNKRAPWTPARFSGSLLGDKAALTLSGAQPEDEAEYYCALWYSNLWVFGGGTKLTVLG; 0.000206
D08 (antibody, human IgG1, lambda, L234A L235A, V domains shown) VH: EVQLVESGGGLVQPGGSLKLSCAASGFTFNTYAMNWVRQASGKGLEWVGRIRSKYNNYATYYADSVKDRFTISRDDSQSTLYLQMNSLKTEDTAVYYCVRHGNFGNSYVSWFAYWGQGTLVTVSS VL: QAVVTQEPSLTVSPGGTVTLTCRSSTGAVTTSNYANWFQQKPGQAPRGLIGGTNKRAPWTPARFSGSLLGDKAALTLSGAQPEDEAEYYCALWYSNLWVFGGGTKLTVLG; 0.00266

Quick one: koff for C08 (antibody, human IgG1, lambda, L234A L235A, V domains shown) VH: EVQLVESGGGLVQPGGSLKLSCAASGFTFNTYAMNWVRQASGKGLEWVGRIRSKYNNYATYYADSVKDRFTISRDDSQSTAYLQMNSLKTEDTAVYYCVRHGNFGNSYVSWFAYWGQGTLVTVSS VL: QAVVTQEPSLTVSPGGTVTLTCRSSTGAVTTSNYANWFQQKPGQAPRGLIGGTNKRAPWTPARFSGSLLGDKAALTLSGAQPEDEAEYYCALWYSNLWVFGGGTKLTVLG ? 0.00589
